Where do these numbers come from? They come from patent US10723726B2.

assay-notes: Aqueous solubility by equilibration, HPLC analysis
Assay type: physicochemical
experimental-setup: after slurrying in water 4-5 days
Counter-ions that a name gives are not always drawn.
Recorded Soln pH for the following compounds
property-measured: Soln pH

>>> print(df.to_string())
                                   compound  property_measured  observed_measurement
0                                      [Ca]            Soln pH                     7
1                              NC(CO)(CO)CO            Soln pH                     8
2  O=C(O)c1ccc(-c2ccc(/C=C3\SC(=S)N(Cc4ccccc4)C3=O)o2)cc1 [LA1 meglumine salt]            Soln pH                     8
3                                  C1CNCCN1            Soln pH                     8
4  O=C(O)c1ccc(-c2ccc(/C=C3\SC(=S)N(Cc4ccccc4)C3=O)o2)cc1 [LA1 choline salt]            Soln pH                     8

====

assay-notes: in vivo
experimental-setup: male, beagle, dog, po, 3 mg/kg, Half life
property-measured: half-life

In [3]: df
Out[3]:
                                chem_smiles  observed_measurement
0  O=C(O)c1ccc(-c2ccc(/C=C3\SC(=S)N(Cc4ccccc4)C3=O)o2)cc1                2.11 h

====

assay-notes: in vivo
experimental-setup: male, Sprague-Dawley, rat, po, 2 mg/kg, Rat F %
property-measured: bioavailability (%)

                                chem_smiles  observed_measurement
0  O=C(O)c1ccc(-c2ccc(/C=C3\SC(=S)N(Cc4ccccc4)C3=O)o2)cc1                    23

====

assay-notes: Rat PK of LA1 free acid, first experiment (2-hydroxypropyl-β-cyclodextrin dose solution)
Type: in vivo, Sprague Dawley (SD) rats
experimental-setup: Sprague Dawley, in vivo, PO 2 mg/kg, 30% 2-hydroxypropyl-β-cyclodextrin in PBS
property-measured: half-life (h)

                                   compound  observed_measurement
0  O=C(O)c1ccc(-c2ccc(/C=C3\SC(=S)N(Cc4ccccc4)C3=O)o2)cc1 [LA1]                  2.03

====

assay-notes: in vivo
experimental-setup: male, Sprague-Dawley, rat, po, 2 mg/kg, AUC in mM*hr
property-measured: AUC (µM·h)

In [3]: df
Out[3]:
                                chem_smiles  observed_measurement
0  O=C(O)c1ccc(-c2ccc(/C=C3\SC(=S)N(Cc4ccccc4)C3=O)o2)cc1                  0.76

====

assay-notes: in vivo
experimental-setup: male, Beagle, dog, po, 5 mg/kg, Mean conc.
Where a name gives a salt, the structure may show the parent alone.
property-measured: concentration at 24 h (ng/mL)

In [3]: df
Out[3]:
                                   compound  observed_measurement
0  O=C(O)c1ccc(-c2ccc(/C=C3\SC(=S)N(Cc4ccccc4)C3=O)o2)cc1 [LA1 choline salt]                  16.9

====

assay-notes: in vivo
experimental-setup: male, beagle, dog, po, 0.5 mg/kg, Plasma concentration
Protocol: The PO (2 mg/kg) dose solution of micronized LA1 was prepared in 0.1% Tween-80 0.5% (w/v) and methyl cellulose in water. The objective of the study was to investigate the preclinical pharmacokinetic profile of LA1 (micronized powder) in Beagle dog. […]
property-measured: concentration at 4 h (ng/mL)

>>> print(df.to_string())
                                   compound  observed_measurement
0  O=C(O)c1ccc(-c2ccc(/C=C3\SC(=S)N(Cc4ccccc4)C3=O)o2)cc1 [LA1 (micronized)]                   660

====

assay-notes: in vivo
experimental-setup: male, Sprague-Dawley, rat, po, 2 mg/kg, MRT
Structures can show the parent of a compound that is named as a salt.
property-measured: MRT (h)

>>> df
                                   molecule  unit_tag  observed_measurement
0  O=C(O)c1ccc(-c2ccc(/C=C3\SC(=S)N(Cc4ccccc4)C3=O)o2)cc1 [LA1 meglumine salt]         h                  1.54
1  O=C(O)c1ccc(-c2ccc(/C=C3\SC(=S)N(Cc4ccccc4)C3=O)o2)cc1 [LA1 choline salt]         h                  1.81

====

assay-notes: in vivo
experimental-setup: male, beagle, dog, iv, 0.5 mg/kg
Counter-ions that a name gives are not always drawn.
property-measured: Cmax (µg/mL)

>>> print(df.to_string())
                                   molecule  observed_measurement
0  O=C(O)c1ccc(-c2ccc(/C=C3\SC(=S)N(Cc4ccccc4)C3=O)o2)cc1 [LA1 choline salt]                  2.04

====

assay-notes: Rat PK of LA1 free acid, first experiment (2-hydroxypropyl-β-cyclodextrin dose solution)
Type: in vivo, Sprague Dawley (SD) rats
experimental-setup: Sprague Dawley, in vivo, PO 2 mg/kg, 30% 2-hydroxypropyl-β-cyclodextrin in PBS
property-measured: MRT (h)

                                   compound  property_measured  unit_tag  observed_measurement
0  O=C(O)c1ccc(-c2ccc(/C=C3\SC(=S)N(Cc4ccccc4)C3=O)o2)cc1 [LA1]                MRT         h                  3.49

====

assay-notes: Humidity stress at 40° C./75% RH
Format: physicochemical
experimental-setup: 5-6 days
Counter-ions that a name gives are not always drawn.
property-measured: Weight gain (%)

                                   molecule  observed_measurement
0  O=C(O)c1ccc(-c2ccc(/C=C3\SC(=S)N(Cc4ccccc4)C3=O)o2)cc1 [LA1 choline salt]                   8.9
1                            [Ca] [calcium]                   1.7
2  O=C(O)c1ccc(-c2ccc(/C=C3\SC(=S)N(Cc4ccccc4)C3=O)o2)cc1 [LA1 meglumine salt]                   1.4
3                     C1CNCCN1 [piperazine]                  −5.5

====

assay-notes: in vivo
experimental-setup: male, Beagle, dog, iv, 0.5 mg/kg, Plasma concentration
Counter-ions that a name gives are not always drawn.
property-measured: concentration at 0.5 h (ng/mL)

>>> print(df.to_string())
                                   molecule       property_measured  observed_measurement
0  O=C(O)c1ccc(-c2ccc(/C=C3\SC(=S)N(Cc4ccccc4)C3=O)o2)cc1 [LA1 choline salt]  concentration at 0.5 h                   501

====

assay-notes: in vivo
experimental-setup: male, beagle, dog, iv, 0.5 mg/kg, C0
property-measured: C0 (ng/mL)

                                chem_smiles  observed_measurement
0  O=C(O)c1ccc(-c2ccc(/C=C3\SC(=S)N(Cc4ccccc4)C3=O)o2)cc1                  1330

====

assay-notes: in vivo
experimental-setup: male, beagle, dog, iv, 0.5 mg/kg, Half life
Structures can show the parent of a compound that is named as a salt.
property-measured: half-life (h)

>>> print(df.to_string())
                                   compound  observed_measurement
0  O=C(O)c1ccc(-c2ccc(/C=C3\SC(=S)N(Cc4ccccc4)C3=O)o2)cc1 [LA1 choline salt]                  2.15

====

assay-notes: in vivo
experimental-setup: male, beagle, dog, Dog F % (absolute oral bioavailability)
Structures can show the parent of a compound that is named as a salt.
property-measured: bioavailability (%)

                                   molecule  property_measured  observed_measurement
0  O=C(O)c1ccc(-c2ccc(/C=C3\SC(=S)N(Cc4ccccc4)C3=O)o2)cc1 [LA1 choline salt]    bioavailability                  43.4

====

assay-notes: in vivo
experimental-setup: male, beagle, dog, po, 5 mg/kg, Plasma concentration
Where a name gives a salt, the structure may show the parent alone.
property-measured: concentration at 10 h (ng/mL)

                                   compound      property_measured  observed_measurement
0  O=C(O)c1ccc(-c2ccc(/C=C3\SC(=S)N(Cc4ccccc4)C3=O)o2)cc1 [LA1 choline salt]  concentration at 10 h                   158
